Values from the nanobody polyreactivity screen of Harvey et al. (2022)

Assay: yeast display, Sf9 membrane polyspecificity reagent, FACS + sequencing; frameworks hold sequencing errors
measurement name: polyreactivity (PSR sort gate)

As a guide, the following entries are already answered.
Query :: # lookup: polyreactivity (PSR sort gate) of QDQLVESGGGLVQAGGSLRLSCAASGRTFFWNAMGWYRPAPGKERELVAAITWSGGSTYYADSVKGRFTISRDNAKNTVYLQMNSLKPEDPAVYYCAAVVTDYVWRSEYWGQGTQVTVSS
Result :: low polyreactivity

Query :: # lookup: polyreactivity (PSR sort gate) of QVQLVESGAGLVQAGGSLRLSCAASGRTVAWNAMGRYRQAPGKERELVAAISWSGTSTYYADSVKGRFTISRDNAKNTVYLQMNSLKPEDTAVYYCATSVKARQIYGYYYWGQGTQVSVSS
Result :: high polyreactivity

Query :: # lookup: polyreactivity (PSR sort gate) of QVQLVDSGGGLVQAGGSLRLSCADSGRIFVGYAMGWYTQAPGKDRELVAAINRTGSSTYYADSVKGRFTISRDNAKTTVYLQMNSLKPEDTAVYYCNARSGNRYGPRYDYWGQGTQVTVSS
Result :: high polyreactivity

Query :: # lookup: polyreactivity (PSR sort gate) of QVQLEESGGGLVQAGGSLRLSCAASGRTFVFNAMGWYRQAPGTERELVASINSRVGSTYYADSVKGRFTISRDNAKNTVYLQMNSLKPEDTAVYYCAARSYSSYYYWGQGTQVTVSS
Result :: high polyreactivity

Here is the next item to consider.
Query :: # lookup: polyreactivity (PSR sort gate) of QVQLVESGGGLVQAGGSLRLSCAASGFIFATYNMGWYRQAPGKERELVAAITWRGGSTYYADSVKGRFTISRDNAKITVYLQMNSLKPEDTAVYYCAAQDVYSYRYVEDDYWGQGTQVTVSS
Result :: low polyreactivity
